Experimental target: human PD-L1 expressed on cell surface (human, UniProt Q9NZQ7 19-290)
Sequence (Q9NZQ7 19-290 limits assumed): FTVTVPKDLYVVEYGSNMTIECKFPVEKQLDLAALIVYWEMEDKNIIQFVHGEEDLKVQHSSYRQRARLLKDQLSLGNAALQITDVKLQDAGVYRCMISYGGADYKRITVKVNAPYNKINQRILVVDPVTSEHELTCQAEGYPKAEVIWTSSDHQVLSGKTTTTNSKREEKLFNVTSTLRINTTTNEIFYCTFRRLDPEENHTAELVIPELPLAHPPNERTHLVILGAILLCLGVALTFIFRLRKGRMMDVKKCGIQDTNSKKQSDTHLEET
Procedure text: cell-based or functional assay
Readout name: Internalization (%), FACS, 1 µg/ml, 4 h
Give your result in % as a bare value.

Value of measured Internalization (%), FACS, 1 µg/ml, 4 h for the entry 56E5 (antibody, human IgG1, V domains shown) VH: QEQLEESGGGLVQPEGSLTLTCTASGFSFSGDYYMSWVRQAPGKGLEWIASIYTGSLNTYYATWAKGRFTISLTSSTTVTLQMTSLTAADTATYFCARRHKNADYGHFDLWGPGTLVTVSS VL: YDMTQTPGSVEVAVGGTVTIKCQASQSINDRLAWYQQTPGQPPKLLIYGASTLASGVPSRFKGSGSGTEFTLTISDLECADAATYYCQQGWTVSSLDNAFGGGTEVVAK : 20.6

Turning now to a further binder:
Value of measured Internalization (%), FACS, 1 µg/ml, 4 h for the entry 69D10 (antibody, human IgG1, V domains shown) VH: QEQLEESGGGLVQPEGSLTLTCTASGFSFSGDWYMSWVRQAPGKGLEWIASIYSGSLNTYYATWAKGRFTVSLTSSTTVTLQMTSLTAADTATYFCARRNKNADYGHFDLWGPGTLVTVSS VL: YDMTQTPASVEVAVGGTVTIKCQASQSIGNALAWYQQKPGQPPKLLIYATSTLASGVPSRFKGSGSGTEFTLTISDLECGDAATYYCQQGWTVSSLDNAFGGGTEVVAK : 18.2
